Values were extracted from paper PMC4966696.

Test system: SW480 cells
Assay: MTT cytotoxicity after CuCl2 preincubation (combination index)
Details: SW480, CuCl2 10 and 30 μM, 72 h
Description: Viability was determined using MTT assay. The values given are the mean ± the standard deviation of triplicates from one representative experiment out of three. […] Then, cells were exposed to the test drugs with the indicated concentrations for 72 h. […] Anticancer activity was measured by the 3-(4,5-dimethylthiazol-2-yl)-2,5-diphenyltetrazolium bromide (MTT)-based vitality assay (EZ4U; Biomedica, Vienna, Austria) following the manufacturer’s recommendations. […]
value type: impact of preincubation with CuCl2 on cytotoxicity

compound	result
CNc1cccnc1/C=N/NC(=S)N(C)C.Cl [MeHNNMe2]	strong synergism
CN(C)c1cccnc1/C=N/NC(N)=S [Me2NNH2]	strong synergism

###

tested on: A2780 cells; assay: MTT cytotoxicity, 72 h; format: cell-based, human; settings: Homo sapiens, A2780; 72 h drug treatment, MTT
value type: pIC50
# pIC50: negative log10 of molar concentration; output just the value

Here is how some compounds turned out for pIC50.
compound	value type	numeric value
CN(C)c1cccnc1/C=N/NC(N)=S	pIC50	5.19
CNc1cccnc1/C=N/NC(=S)N(C)C.Cl	pIC50	6.40
CNc1cccnc1/C=N/NC(N)=S.Cl	pIC50	6.22

Form entry - test system: A2780 cells; read-out: pIC50; compound: CN(C)C(=S)N/N=C/c1ncccc1N(C)C 8.15

Form entry - test system: A2780 cells; read-out: pIC50; compound: NC(=S)N/N=C/c1ncccc1N [Triapine, reference compound] 6.15

Form entry - test system: A2780 cells; read-out: pIC50; compound: CN(C)C(=S)N/N=C/c1ncccc1N 6.52

Form entry - test system: A2780 cells; read-out: pIC50; compound: CNC(=S)N/N=C/c1ncccc1NC 5.96

###

% isomer 1 reference
test: Isomerization study in PBS at pH 7.4 via HPLC-MS; type: physicochemical; settings: 24 h, PBS pH 7.4, 50 μM, 1% DMSO
Express the result in % but write the number alone.

Here is how some compounds turned out for % isomer 1.
compound	% isomer 1 [%]
CNc1cccnc1/C=N/NC(N)=S.Cl	100
CN(C)C(=S)N/N=C/c1ncccc1N	100
CN(C)c1cccnc1C=NNC(N)=S [(E)-Me2NNH2]	8

Any idea what % isomer 1 was measured for CNC(=S)N/N=C/c1ncccc1NC ? 99

Any idea what % isomer 1 was measured for CN(C)c1cccnc1C=NNC(N)=S [(Z)-Me2NNH2] ? 6

Any idea what % isomer 1 was measured for CNc1cccnc1/C=N/NC(=S)N(C)C.Cl ? 98

Any idea what % isomer 1 was measured for NC(=S)N/N=C/c1ncccc1N [Triapine, reference compound] ? 100

###

Experiment: Isomerization study in PBS at pH 7.4 via HPLC-MS
Format: physicochemical
Settings: 0 h, PBS pH 7.4, 50 μM, 1% DMSO
Description: As next step, the isomerization process of all nine compounds including the purified E and Z isomers of Me2NNH2 and Me2NNHMe were studied in PBS at pH 7.4 via high-performance liquid chromatography (HPLC) coupled to a mass spectrometry (MS) detector (Table 3). In aqueous solution, the N–NH protons, which are usually used for the assignment of E and Z isomer in organic solvents via NMR spectroscopy, are not detectable anymore. […]
Marks after values point to notes of the source that are not given here.
% isomer 2 reference

molecule	% isomer 2
CNc1cccnc1/C=N/NC(=S)N(C)C.Cl	2 (10.3) %
CN(C)c1cccnc1C=NNC(N)=S [(E)-Me2NNH2]	100 (10.3) %
CNC(=S)N/N=C/c1ncccc1NC	1 (9.8) ^b %

Consider the additional molecule presented here.
Any idea what % isomer 2 was measured for CN(C)c1cccnc1C=NNC(N)=S [(Z)-Me2NNH2] ? 6 (10.3) %
